Entries and their pIC50
- TARGET UNDER TEST: CBL-B (Homo sapiens, UniProt Q13191)
- Construct: GST
- Sequence (Q13191 whole entry): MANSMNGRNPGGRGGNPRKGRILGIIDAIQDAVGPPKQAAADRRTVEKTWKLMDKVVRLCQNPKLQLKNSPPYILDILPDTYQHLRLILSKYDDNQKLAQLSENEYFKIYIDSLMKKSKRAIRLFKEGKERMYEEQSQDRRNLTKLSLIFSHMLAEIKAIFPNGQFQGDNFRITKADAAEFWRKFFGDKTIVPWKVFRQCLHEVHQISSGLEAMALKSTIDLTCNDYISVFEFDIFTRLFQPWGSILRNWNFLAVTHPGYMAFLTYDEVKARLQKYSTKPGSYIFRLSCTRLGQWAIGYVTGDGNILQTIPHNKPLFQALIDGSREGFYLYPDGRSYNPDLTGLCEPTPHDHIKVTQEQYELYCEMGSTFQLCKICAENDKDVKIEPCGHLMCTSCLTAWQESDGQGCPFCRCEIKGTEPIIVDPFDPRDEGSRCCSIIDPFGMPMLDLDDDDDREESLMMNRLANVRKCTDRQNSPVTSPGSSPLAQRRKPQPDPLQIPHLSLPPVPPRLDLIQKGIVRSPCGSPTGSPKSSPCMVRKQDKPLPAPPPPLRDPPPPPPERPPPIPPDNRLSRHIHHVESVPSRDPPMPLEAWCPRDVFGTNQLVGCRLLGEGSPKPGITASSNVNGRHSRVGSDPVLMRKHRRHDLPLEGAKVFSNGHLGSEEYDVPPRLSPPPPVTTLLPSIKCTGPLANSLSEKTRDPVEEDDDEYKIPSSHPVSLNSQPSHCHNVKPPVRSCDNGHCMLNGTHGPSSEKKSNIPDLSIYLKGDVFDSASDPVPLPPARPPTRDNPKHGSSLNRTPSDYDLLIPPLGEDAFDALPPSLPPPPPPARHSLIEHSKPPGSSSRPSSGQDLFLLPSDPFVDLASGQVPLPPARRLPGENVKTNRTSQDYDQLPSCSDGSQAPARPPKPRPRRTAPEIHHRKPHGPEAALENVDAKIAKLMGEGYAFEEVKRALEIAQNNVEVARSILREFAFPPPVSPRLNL
- ASSAY NAME: CBL-B TR-FRET IC50 screening (E1/E2 ubiquitination, Biotin-Ubiquitin, Anti GST-Tb donor / Streptavidin-d2 acceptor)
- Assay type: biochemical
- COND: CBL-B 10 nM final; 11-point titration from 100 uM; binned A-F; read-out: CBL-B TR-FRET activity IC50
pIC50: −log10 of the molar value.

| COMPOUND | TARGET UNDER TEST | pIC50 |
| --- | --- | --- |
| [2H]C([2H])([2H])n1cnnc1CC1(c2cccc(-n3cc4c(C(F)(F)F)cc([C@H](C)N5CCO[C@H](C)C5)cn4c3=O)c2)COC1 [Compound 287_P1] | CBL-B (Homo sapiens, UniProt Q13191) | > 7.00 |
| Cn1cnnc1CC1(c2cccc(-n3cc4c(C(F)(F)F)cc(CO)cn4c3=O)c2)COC1 (single isomer, unassigned) [Compound 81] | CBL-B (Homo sapiens, UniProt Q13191) | 6.00 to 6.52 |

So, CNS(=O)(=O)c1cc(C(F)(F)F)c2cn(-c3cccc(C4(Cc5nncn5C)COC4)c3)c(=O)n2c1 [Compound 175] ? Its pIC50 was 5.52 to 6.00

----------
- TARGET UNDER TEST: CBL-B (Homo sapiens)
- Construct: GST
- ASSAY NAME: CBL-B TR-FRET IC50 screening (E1/E2 ubiquitination, Biotin-Ubiquitin, Anti GST-Tb donor / Streptavidin-d2 acceptor)
- Format: biochemical
- COND: CBL-B 10 nM final; 11-point titration from 100 uM; binned A-F; read-out: CBL-B TR-FRET activity IC50
pIC50: −log10 of the molar value.
ASSAY READOUT: pIC50

Please review the entries below; each comes with its answer.
| MOLECULE | ASSAY READOUT | OBSERVED RESULT |
| --- | --- | --- |
| CC(=O)N1CC(Cc2nncn2C)(c2cccc(-n3cc4c(C(F)(F)F)cccn4c3=O)c2)C1 | pIC50 | < 5.00 |
| Cc1scnc1[C@H](c1cccc(-n2cc3c(C(F)(F)F)cc(CN4CCC[C@H](C)C4)cn3c2=O)c1)C1CCC1 (single isomer, unassigned) | pIC50 | < 5.00 |
| Cn1cnnc1CC1(c2cccc(-n3cc4c(C(F)(F)F)cc(CN5CCCC[C@H](O)C5)cn4c3=O)c2)COC1 | pIC50 | > 7.00 |
| C[C@H]1CCCN(Cc2cc(C(F)(F)F)c3cn(-c4cccc(C5(Cc6nncn6C(F)F)COC5)c4)c(=O)n3c2)C1 | pIC50 | > 7.00 |
| [2H]c1nnc(CC2(c3cccc(-n4cc5c(C(F)(F)F)cc(CN6CCC[C@H](C)C6)cn5c4=O)c3)COC2)n1C | pIC50 | > 7.00 |

Below: the item to evaluate.
So, C[C@@H]1CCN(Cc2cc(C(F)(F)F)c3cn(-c4cccc([C@H](c5nncn5C)C5CCC5)c4)c(=O)n3c2)C1 ? Its pIC50 was > 7.00

----------
- TARGET UNDER TEST: CBL-B (Homo sapiens, UniProt Q13191)
- Construct: GST
- ASSAY NAME: CBL-B TR-FRET IC50 screening (E1/E2 ubiquitination, Biotin-Ubiquitin, Anti GST-Tb donor / Streptavidin-d2 acceptor)
- Assay type: biochemical
- COND: CBL-B 10 nM final; 11-point titration from 100 uM; binned A-F; read-out: CBL-B TR-FRET activity IC50
pIC50: −log10 of the molar value.
Entries and their pIC50

Please review the entries below; each comes with its answer.
| COMPOUND | TARGET UNDER TEST | OBSERVED RESULT |
| --- | --- | --- |
| Cn1cnnc1CC1(c2cccc(-n3cc4c(C(F)(F)F)cc(C#N)cn4c3=O)c2)COC1 | CBL-B (Homo sapiens, UniProt Q13191) | 6.52 to 7.00 |
| C[C@@H]1CCCN1Cc1cc(C(F)(F)F)c2cn(-c3cccc([C@H](c4nncn4C)C4CCC4)c3)c(=O)n2c1 | CBL-B (Homo sapiens, UniProt Q13191) | > 7.00 |
| C[C@@H](c1cc(C(F)(F)F)c2cn(-c3cccc(C4([C@H](F)c5nncn5C)COC4)c3)c(=O)n2c1)N1CCC2(CC2)C1 | CBL-B (Homo sapiens, UniProt Q13191) | 6.52 to 7.00 |
| Cn1cnnc1[C@@H](c1cccc(-n2cc3c(C(F)(F)F)cc(CNC4CC(F)(F)C4)cn3c2=O)c1)C1CCC1 | CBL-B (Homo sapiens, UniProt Q13191) | < 5.00 |
| C[C@@H](Sc1nncn1C)c1cccc(-n2cc3c(C(F)(F)F)cccn3c2=O)c1 | CBL-B (Homo sapiens, UniProt Q13191) | < 5.00 |

So, CC1CN(Cc2cc(C(F)(F)F)c3cn(-c4cccc([C@]5(Cc6nncn6C)C[C@@H](C#N)C5)c4)c(=O)n3c2)CCC1(F)F (single isomer, unassigned) [Compound 99] ? Its pIC50 was > 7.00

So, CC(Cc1nncn1C)c1ccc(F)c(-n2cc3c(C(F)(F)F)cccn3c2=O)c1 (stereo not shown) ? Its pIC50 was 5.00 to 5.52

So, CC(=O)N1CCN(Cc2cc(C(F)(F)F)c3cn(-c4cccc([C@H](c5nncn5C)C5CCC5)c4)c(=O)n3c2)CC1 ? Its pIC50 was 5.52 to 6.00

So, COCCn1cc(C)c([C@H](c2cccc(-n3cc4c(C(F)(F)F)cc(CN5CCC[C@H](C)C5)cn4c3=O)c2)C2CCC2)n1 (single isomer, unassigned) ? Its pIC50 was < 5.00

So, Cn1cnnc1[C@]1(c2cccc(-n3cc4c(C(F)(F)F)cc(CN5CC[C@H](F)C5)cn4c3=O)c2)C[C@H](C)C1 (single isomer, unassigned) ? Its pIC50 was > 7.00

So, Cn1cnnc1[C@]1(c2cccc(-n3cc4c(C(F)(F)F)cc(CN5CC6(CC6)C5)cn4c3=O)c2)C[C@H](C)C1 (single isomer, unassigned) ? Its pIC50 was > 7.00

So, CC(=O)c1cc(C(F)(F)F)c2cn(-c3cccc(C4(Cc5nncn5C)COC4)c3)c(=O)n2c1 ? Its pIC50 was 5.52 to 6.00

So, [2H]C([2H])([2H])n1cnnc1[C@H](c1cccc(-n2cc3c(C(F)(F)F)cc(CN4CCC[C@H](C)C4)cn3c2=O)c1)C1CCC1 (single isomer, unassigned) ? Its pIC50 was 6.00 to 6.52
